Known folding stability dG of a selection of variants
B1: EHEE_rd2_0196 (parent)
chain: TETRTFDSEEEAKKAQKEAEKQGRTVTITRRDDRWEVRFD

Variants of: B1
experimental-protocol: folding stability dG (cDNA display proteolysis); higher = more stable
condition-context: PBS, room temperature

[
  {
    "macromolecule-sequence": "TETRTFDSEEEAKKAQKEMEKQGRTVTITRRDDRWEVRFD",
    "measurement-units": "kJ/mol",
    "folding stability dG": 12.7
  },
  {
    "macromolecule-sequence": "TECRTFDSEEEAKKAQKEAEKQGRTVTITRRDDRWEVRFD",
    "measurement-units": "kJ/mol",
    "folding stability dG": 13.5
  },
  {
    "macromolecule-sequence": "TETRTFDSEEEAKKAQKEAEKQGFTVTITRRDDRWEVRFD",
    "measurement-units": "kJ/mol",
    "folding stability dG": 15
  },
  {
    "macromolecule-sequence": "TETRTFDSEEEAKKAQKEAEKQGRTVTITRYDDRWEVRFD",
    "measurement-units": "kJ/mol",
    "folding stability dG": 10.7
  },
  {
    "macromolecule-sequence": "TETRTFDSEEEAKKAQKEAEKQGRTVTITRRDDRWEVRHD",
    "measurement-units": "kJ/mol",
    "folding stability dG": 8.05
  },
  {
    "macromolecule-sequence": "TETRTFDSEEEAKKAQKEAEKQGRTVTITRRDDRGEVRFD",
    "measurement-units": "kJ/mol",
    "folding stability dG": 1.51
  }
]

Data provenance is the MegaScale stability set (Tsuboyama et al. 2023).
